Assign log10 of Kd to each entry below.
protocol: Dissociation constant against galectin-3 using competitive fluorescence polarization
Friendly reminder: values = log10 of Kd, unit µM.

Query string: Let me know recorded log10 of Kd for OCC1O[C@@H](O/N=C/c2ccc(O)cc2)C(O)[C@@H](O)C1O (stereo partly specified) , thanks.
Result string: 3.68

Query string: Let me know recorded log10 of Kd for OCC1O[C@@H](O/N=C/c2c3ccccc3cc3ccccc23)C(O)[C@@H](O)C1O (stereo partly specified) , thanks.
Result string: 3.40

Query string: Let me know recorded log10 of Kd for OCC1O[C@@H](O/N=C/c2ccc(-c3ccccc3)cc2)C(O)[C@@H](O)C1O (stereo partly specified) , thanks.
Result string: 3.78

Query string: Let me know recorded log10 of Kd for OC[C@H]1O[C@@H](O/N=C/c2c[nH]c3ccccc23)[C@H](O)[C@@H](O)[C@H]1O , thanks.
Result string: 2.34

Query string: Let me know recorded log10 of Kd for Cc1ccc(O)c(/C=N/O[C@@H]2OC(CO)C(O)[C@H](O)C2O)c1 (stereo partly specified) , thanks.
Result string: 3.41

Query string: Let me know recorded log10 of Kd for OCC1O[C@@H](O/N=C\C2C[C@H]3C=CC2C3)C(O)[C@@H](O)C1O (stereo partly specified) , thanks.
Result string: 3.68

Query string: Let me know recorded log10 of Kd for CC(C)(C)c1ccc(/C=N/O[C@@H]2OC(CO)C(O)[C@H](O)C2O)cc1 (stereo partly specified) , thanks.
Result string: 3.68

Query string: Let me know recorded log10 of Kd for COc1cccc(/C=N/O[C@@H]2OC(CO)C(O)[C@H](O)C2O)c1O (stereo partly specified) , thanks.
Result string: 3.23

Query string: Let me know recorded log10 of Kd for O=[N+]([O-])c1ccccc1/C=N/O[C@@H]1OC(CO)C(O)[C@H](O)C1O (stereo partly specified) , thanks.
Result string: 3.97

Query string: Let me know recorded log10 of Kd for O=[N+]([O-])c1ccc(O)c(/C=N/O[C@@H]2OC(CO)C(O)[C@H](O)C2O)c1 (stereo partly specified) , thanks.
Result string: 2.56

Query string: Let me know recorded log10 of Kd for OCC1O[C@@H](O/N=C/c2cccc(O)c2)C(O)[C@@H](O)C1O (stereo partly specified) , thanks.
Result string: 3.26

Query string: Let me know recorded log10 of Kd for OCC1O[C@@H](O/N=C/c2ccccc2OC(F)(F)F)C(O)[C@@H](O)C1O (stereo partly specified) , thanks.
Result string: 3.58

Query string: Let me know recorded log10 of Kd for OCC1O[C@@H](O/N=C/c2ccccc2-c2ccccc2)C(O)[C@@H](O)C1O (stereo partly specified) , thanks.
Result string: 3.46

Query string: Let me know recorded log10 of Kd for C=NO[C@@H]1OC(CO)C(O)[C@H](O)C1O (stereo partly specified) , thanks.
Result string: 3.95

Query string: Let me know recorded log10 of Kd for OCC1O[C@@H](O/N=C/C(c2ccccc2)c2ccccc2)C(O)[C@@H](O)C1O (stereo partly specified) , thanks.
Result string: 3.86

Query string: Let me know recorded log10 of Kd for OCC1O[C@@H](O/N=C/c2ccccc2O)C(O)[C@@H](O)C1O (stereo partly specified) , thanks.
Result string: 3.26

Query string: Let me know recorded log10 of Kd for O=[N+]([O-])c1ccc(/C=N/O[C@@H]2OC(CO)C(O)[C@H](O)C2O)c([N+](=O)[O-])c1 (stereo partly specified) , thanks.
Result string: 3.26

Query string: Let me know recorded log10 of Kd for OCC1O[C@@H](O/N=C/c2cccc(-c3ccccc3)c2)C(O)[C@@H](O)C1O (stereo partly specified) , thanks.
Result string: 3.46

Query string: Let me know recorded log10 of Kd for OCC1O[C@@H](O/N=C/c2cc(O)ccc2O)C(O)[C@@H](O)C1O (stereo partly specified) , thanks.
Result string: 2.89

Query string: Let me know recorded log10 of Kd for OCC1O[C@@H](O/N=C/c2cccc3ccccc23)C(O)[C@@H](O)C1O (stereo partly specified) , thanks.
Result string: 2.57

Query string: Let me know recorded log10 of Kd for OC[C@H]1O[C@@H](O)[C@H](O)[C@@H](O)[C@H]1O , thanks.
Result string: 3.64

Query string: Let me know recorded log10 of Kd for CN(C)c1ccc(/C=N/O[C@@H]2OC(CO)C(O)[C@H](O)C2O)cc1 (stereo partly specified) , thanks.
Result string: 3.95

Query string: Let me know recorded log10 of Kd for NO[C@@H]1OC(CO)C(O)[C@H](O)C1O (stereo partly specified) , thanks.
Result string: 3.74

Query string: Let me know recorded log10 of Kd for OCC1O[C@@H](O/N=C/CCl)C(O)[C@@H](O)C1O (stereo partly specified) , thanks.
Result string: 3.72

Query string: Let me know recorded log10 of Kd for O=C[C@H](O)[C@@H](O)[C@@H](O)[C@H](O)CO , thanks.
Result string: 3.60

Query string: Let me know recorded log10 of Kd for O=[N+]([O-])c1cccc(/C=N/O[C@@H]2OC(CO)C(O)[C@H](O)C2O)c1 (stereo partly specified) , thanks.
Result string: 2.72

Query string: Let me know recorded log10 of Kd for OCC1O[C@@H](O/N=C/c2cccc(F)c2)C(O)[C@@H](O)C1O (stereo partly specified) , thanks.
Result string: 3.20

Query string: Let me know recorded log10 of Kd for OCC1O[C@@H](O/N=C/c2cccc(OC(F)(F)F)c2)C(O)[C@@H](O)C1O (stereo partly specified) , thanks.
Result string: 3.34

Query string: Let me know recorded log10 of Kd for CC(=O)Nc1ccc(/C=N/O[C@@H]2OC(CO)C(O)[C@H](O)C2O)cc1 (stereo partly specified) , thanks.
Result string: 3.61

Query string: Let me know recorded log10 of Kd for OCC1O[C@@H](O/N=C/c2cc(Br)ccc2O)C(O)[C@@H](O)C1O (stereo partly specified) , thanks.
Result string: 3.22

Query string: Let me know recorded log10 of Kd for C/C=N/O[C@@H]1OC(CO)C(O)[C@H](O)C1O (stereo partly specified) , thanks.
Result string: 3.76

Query string: Let me know recorded log10 of Kd for OCC1O[C@@H](O/N=C/c2ccc(Br)cc2)C(O)[C@@H](O)C1O (stereo partly specified) , thanks.
Result string: 2.84

Query string: Let me know recorded log10 of Kd for O=[N+]([O-])c1ccc(/C=N/O[C@@H]2OC(CO)C(O)[C@H](O)C2O)o1 (stereo partly specified) , thanks.
Result string: 3.20

Query string: Let me know recorded log10 of Kd for CCn1c2ccccc2c2cc(/C=N/O[C@@H]3OC(CO)C(O)[C@H](O)C3O)ccc21 (stereo partly specified) , thanks.
Result string: 3.34

Query string: Let me know recorded log10 of Kd for OCC1O[C@@H](O/N=C/c2ccc3ccccc3n2)C(O)[C@@H](O)C1O (stereo partly specified) , thanks.
Result string: 3.15

Query string: Let me know recorded log10 of Kd for OCC1O[C@@H](O/N=C/c2ccccc2)C(O)[C@@H](O)C1O (stereo partly specified) , thanks.
Result string: 3.54

// provenance: ChEMBL document CHEMBL1144386
